# Biodistribution: kidney annotations
Tested on: NRG-mice bearing LNCaP tumors
RUN DESCRIPTION: Biodistribution (and PET/SPECT imaging) in NRG-mice bearing LNCaP tumors
Format: in vivo
TEST PARAMETERS: 24 h p.i., Avg
*1 amine or outer side, *2 acyl side, *3 side chain or, on linkers, in order; H or OH if unused. Where a SMILES comes first, the peptide text is derived from it. [ ]: non-standard residue; d: D form. The star is where a group is joined. ξ: configuration not given here. ξLys(Nα-CO-ξAad) = O=C(O)CCCC(NC(=O)NC(CCCCN*)C(=O)O)C(=O)O; Butanoyl(4-(4-NO2Ph)) = O=C(CCCc1ccc([N+](=O)[O-])cc1)*; DOTA = O=C(O)CN1CCN(CC(=O)O)CCN(CC(=O)*)CCN(CC(=O)O)CC1; Butanoyl(4-(4-MeO-phenyl)) = COc1ccc(CCCC(=O)*)cc1; ξAla(9-anthryl) = NC(Cc1c2ccccc2cc2ccccc12)C(=O)O; X2 = O=C(NC(CCCCN*)C(=O)O)NC(CC(F)C(=O)O)C(=O)O; X1 = O=C(C1CCC(CN[*:1])CC1)[*:2]; ξK = NCCCCC(N)C(=O)O
ASSAY READOUT: Biodistribution: kidney (% ID/g)

[
  {
    "COMPOUND": "O=C([O-])CN1CCN(CC(=O)[O-])CCN(CC(=O)NCCCCC(NC(=O)CNC(=O)CCCc2ccc([N+](=O)[O-])cc2)C(=O)NCC(=O)NCC2CCC(C(=O)NC(Cc3c4ccccc4cc4ccccc34)C(=O)NCCCCC(NC(=O)NC(CCCC(=O)O)C(=O)O)C(=O)O)CC2)CCN(CC(=O)[O-])CC1.[225Ac+3] (stereo not shown) [^225Ac-CCZ02017] ({Butanoyl(4-(4-NO2Ph))}-G[ξK](DOTA)G[X1][ξAla(9-anthryl)]-{ξLys(Nα-CO-ξAad)})",
    "ASSAYED SYSTEM": "NRG-mice bearing LNCaP tumors",
    "ASSAY VALUE": 6.87
  },
  {
    "COMPOUND": "O=C([O-])CN1CCN(CC(=O)[O-])CCN(CC(=O)NCCCCC(NC(=O)CNC(=O)CCCc2ccc([N+](=O)[O-])cc2)C(=O)NCC(=O)NCC2CCC(C(=O)NC(Cc3c4ccccc4cc4ccccc34)C(=O)NCCCCC(NC(=O)NC(CCCC(=O)O)C(=O)O)C(=O)O)CC2)CCN(CC(=O)[O-])CC1.[177Lu+3] (stereo not shown) [^177Lu-CCZ02017] ({Butanoyl(4-(4-NO2Ph))}-G[ξK](DOTA)G[X1][ξAla(9-anthryl)]-{ξLys(Nα-CO-ξAad)})",
    "ASSAYED SYSTEM": "NRG-mice bearing LNCaP tumors",
    "ASSAY VALUE": 5.58
  },
  {
    "COMPOUND": "COc1ccc(CCCC(=O)NCC(=O)NC(CCCCNC(=O)CN2CCN(CC(=O)[O-])CCN(CC(=O)[O-])CCN(CC(=O)[O-])CC2)C(=O)NCC2CCC(C(=O)NC(Cc3c4ccccc4cc4ccccc34)C(=O)NCCCCC(NC(=O)NC(CCCC(=O)O)C(=O)O)C(=O)O)CC2)cc1.[177Lu+3] (stereo not shown) [^177Lu-HTK03170, reference compound]",
    "ASSAYED SYSTEM": "NRG-mice bearing LNCaP tumors",
    "ASSAY VALUE": 6.06
  },
  {
    "COMPOUND": "COc1ccc(CCCC(=O)NCC(=O)NC(CCCCNC(=O)CN2CCN(CC(=O)[O-])CCN(CC(=O)[O-])CCN(CC(=O)[O-])CC2)C(=O)NCC(=O)NCC2CCC(C(=O)NC(Cc3c4ccccc4cc4ccccc34)C(=O)NCCCCC(NC(=O)NC(CC(F)C(=O)O)C(=O)O)C(=O)O)CC2)cc1.[177Lu+3] (stereo not shown) [^177Lu-CCZ02008] ({Butanoyl(4-(4-MeO-phenyl))}-G[ξK](DOTA)G[X1][ξAla(9-anthryl)]-X2)",
    "ASSAYED SYSTEM": "NRG-mice bearing LNCaP tumors",
    "ASSAY VALUE": 7.55
  }
]
